- TARGET: Sodium-dependent dopamine transporter (Rattus norvegicus, UniProt P23977)
- Sequence (P23977 whole entry): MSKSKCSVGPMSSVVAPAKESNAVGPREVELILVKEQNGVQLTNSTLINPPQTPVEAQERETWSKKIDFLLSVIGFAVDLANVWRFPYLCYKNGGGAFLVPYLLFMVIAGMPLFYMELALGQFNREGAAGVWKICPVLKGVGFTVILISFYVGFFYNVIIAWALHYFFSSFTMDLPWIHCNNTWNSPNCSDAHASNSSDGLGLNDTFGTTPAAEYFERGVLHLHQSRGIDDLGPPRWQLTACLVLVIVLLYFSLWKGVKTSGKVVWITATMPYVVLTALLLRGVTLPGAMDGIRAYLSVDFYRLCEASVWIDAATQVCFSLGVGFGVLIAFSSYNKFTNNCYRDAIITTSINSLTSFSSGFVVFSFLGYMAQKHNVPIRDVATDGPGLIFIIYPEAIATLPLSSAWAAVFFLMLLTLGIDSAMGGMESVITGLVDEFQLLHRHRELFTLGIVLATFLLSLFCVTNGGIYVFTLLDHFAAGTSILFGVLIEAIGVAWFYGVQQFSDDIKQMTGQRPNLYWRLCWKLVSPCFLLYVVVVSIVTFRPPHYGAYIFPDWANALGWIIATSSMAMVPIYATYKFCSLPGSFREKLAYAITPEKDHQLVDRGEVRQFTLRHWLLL
- TEST PROTOCOL: Inhibition of [3H]WIN-35428 binding to rat striatum DAT
- Format: tissue-based
Recorded measurements of pKi, one per entry
Entry type: numeric. Quantity: pKi, the -log10 of concentration in molar units.

Consider the following illustrative entries.
In [3]: df
Out[3]:
                              sample_smiles  reading
0  c1ccc(C(c2ccccc2)[C@@H]2CC[C@H](NCc3ccc4[nH]ccc4c3)CO2)cc1     6.47
1  O[C@@H]1C[C@@H](C(c2ccccc2)c2ccccc2)OC[C@H]1NCc1ccc2[nH]ccc2c1     6.24
2  O=[N+]([O-])c1ccc(CN[C@H]2CC[C@@H](C(c3ccccc3)c3ccccc3)OC2)cc1     7.42
3  Oc1ccc(CN[C@@H]2CC[C@H](C(c3ccccc3)c3ccccc3)OC2)cc1     6.94
4  O[C@H]1C[C@H](C(c2ccccc2)c2ccccc2)OC[C@@H]1NCc1ccc2[nH]ccc2c1     6.40

Sodium-dependent dopamine transporter (Rattus norvegicus, UniProt P23977) pKi of c1ccc(C(c2ccccc2)[C@H]2CC[C@@H](NCc3ccc4[nH]ccc4c3)CO2)cc1 is 6.33

pKi value, target or system Sodium-dependent dopamine transporter (Rattus norvegicus, UniProt P23977), for Oc1ccc(CN[C@H]2CC[C@@H](C(c3ccccc3)c3ccccc3)OC2)cc1 : 6.65

Record O=[N+]([O-])c1ccc(CN[C@@H]2CC[C@H](C(c3ccccc3)c3ccccc3)OC2)cc1 / Sodium-dependent dopamine transporter (Rattus norvegicus, UniProt P23977), pKi recorded as 7.19

# lookup: O[C@@H]1C[C@@H](C(c2ccccc2)c2ccccc2)OC[C@H]1NCc1ccccc1 on Sodium-dependent dopamine transporter (Rattus norvegicus, UniProt P23977), pKi = 5.82
